- Tested on: mock-infected MT4 cells
- Experiment Summary: in vitro
Recorded Tox (pCC50) values for a group of compounds are listed next.

# annotated cases, reported Tox (pCC50) shown
Compound: CC(C)CN(C[C@@H](O)[C@H](Cc1ccccc1)NC(=O)O[C@H]1CO[C@H]2OCC[C@H]21)S(=O)(=O)c1ccc2nc(N(C)CCN3CCCC3)oc2c1 [Compound 8]
Tox (pCC50): <4

Compound: CC(C)CN(C[C@@H](O)[C@H](Cc1ccccc1)NC(=O)OCc1cncs1)S(=O)(=O)c1ccc2nc(N(C)C(=O)C3CCC(=O)N3)oc2c1 (stereo partly shown) [Compound 30]
Tox (pCC50): <4

Compound: CC(C)CN(C[C@@H](O)[C@H](Cc1ccccc1)NC(=O)OCc1cncs1)S(=O)(=O)c1ccc2nc(N(C)C(=O)c3ccncc3)oc2c1 [Compound 31]
Tox (pCC50): <4

Hello, please tell me recorded Tox (pCC50) for this one: CC(C)CN(C[C@@H](O)[C@H](Cc1ccccc1)NC(=O)O[C@H]1CO[C@H]2OCC[C@H]21)S(=O)(=O)c1ccc2nc(NCCN(C)C)oc2c1 [Compound 2] <4

Hello, please tell me recorded Tox (pCC50) for this one: CC(C)CN(C[C@@H](O)[C@H](Cc1ccccc1)NC(=O)OCc1cncs1)S(=O)(=O)c1ccc2nc(NC(=O)C3CCC(=O)N3)oc2c1 (stereo partly shown) [Compound 13] <4

Hello, please tell me recorded Tox (pCC50) for this one: CC(C)CN(C[C@@H](O)[C@H](Cc1ccccc1)NC(=O)OCc1cncs1)S(=O)(=O)c1ccc2nc(NC(=O)[C@H]3CCCN3C)oc2c1 [Compound 35] 4.26

Hello, please tell me recorded Tox (pCC50) for this one: CC(C)CN(C[C@@H](O)[C@H](Cc1ccccc1)NC(=O)OCc1cncs1)S(=O)(=O)c1ccc2nc(N(C)C(=O)c3cccnc3)oc2c1 [Compound 32] <4

---

- Test system: mock-infected MT4 cells
- Experiment Summary: in vitro
Property Measured: Tox (pCC50)

# annotated cases, reported Tox (pCC50) shown
Smi: CC(=O)Nc1nc2ccc(S(=O)(=O)N(CC(C)C)C[C@@H](O)[C@H](Cc3ccccc3)NC(=O)OCc3cncs3)cc2o1
Tox (pCC50): <4
--
Smi: CC(C)CN(C[C@@H](O)[C@H](Cc1ccccc1)NC(=O)OCc1cncs1)S(=O)(=O)c1ccc2nc(NC(=O)C3CCN(C)CC3)oc2c1
Tox (pCC50): <4

Consider the record given below.
Hello, please tell me recorded Tox (pCC50) for this one: `CC(C)CN(C[C@@H](O)[C@H](Cc1ccccc1)NC(=O)OCc1cncs1)S(=O)(=O)c1ccc2nc(NC(=O)CN(C)CCN3CCCC3)oc2c1` <4
